These measurements were taken from patent US10287255B2.

# target: human recombinant HDAC6 (Homo sapiens)
# protocol.text: HDAC6 enzyme activity inhibition assay (in vitro, fluorimetric)
# measurement.parameters: human recombinant HDAC6, fluorimetric kit, same protocol as HDAC1
Friendly reminder: IC50 below 200 nM is t, at or above is f.

Examples with answers:
• C[C@@H]1CN(Cc2ccc(C3=CCOCC3)cc2)C[C@H](C)N1Cc1ccc(C(=O)NO)cc1 = f
• C[C@@H]1CN(Cc2ccc(C(=O)NO)cc2)C[C@H](C)N1Cc1ccccc1F = t
• C[C@@H]1CN(Cc2ccc(C(=O)NO)cc2)C[C@H](C)N1Cc1ccccc1Cl = t
• C[C@@H]1CN(Cc2ccc(C(=O)NO)cc2)C[C@H](C)N1Cc1cccc(CN2CCOCC2)c1 = t

q: Decide: IC50 of C[C@@H]1CN(Cc2ccc(C(=O)NO)cc2)C[C@H](C)N1Cc1cccc(F)c1 strictly below 200 nM?
a: t

q: Decide: IC50 of C[C@@H]1CN(Cc2cccc(-n3cccc3)c2)C[C@H](C)N1Cc1ccc(C(=O)NO)cc1 strictly below 200 nM?
a: f

q: Decide: IC50 of C[C@@H]1CN(Cc2ccc(C(=O)NO)cc2)C[C@H](C)N1C(=O)CCc1ccccc1 strictly below 200 nM?
a: t

q: Decide: IC50 of C[C@@H]1CN(Cc2ccc(C(=O)NO)cc2)C[C@H](C)N1C(=O)c1cc[nH]n1 strictly below 200 nM?
a: t

q: Decide: IC50 of C[C@@H]1CN(Cc2ccccc2)C[C@H](C)N1Cc1ccc(/C=C/C(=O)NO)cc1 strictly below 200 nM?
a: t

q: Decide: IC50 of C[C@@H]1CN(Cc2ccc(C(=O)NO)nc2)C[C@H](C)N1Cc1ccccc1 strictly below 200 nM?
a: f

q: Decide: IC50 of C[C@@H]1CN(Cc2ccc(C(=O)NO)c(O)c2)C[C@H](C)N1Cc1cccc(CN2CCOCC2)c1 strictly below 200 nM?
a: f

q: Decide: IC50 of C[C@@H]1CN(Cc2ccc(C(=O)NO)cc2)C[C@H](C)N1C(=O)c1ccc(Cl)cc1 strictly below 200 nM?
a: t

q: Decide: IC50 of CCN1[C@H](C)CN(Cc2ccc(C(=O)NO)cc2)C[C@@H]1C strictly below 200 nM?
a: t

q: Decide: IC50 of C[C@@H]1CN(Cc2ccc(C(=O)NO)cc2)C[C@H](C)N1Cc1cccc(OCC2CCN(CC(C)(C)F)CC2)c1 strictly below 200 nM?
a: t

q: Decide: IC50 of C[C@@H]1CN(Cc2ccccc2)C[C@H](C)N1Cc1ccc(CC(=O)NO)cc1 strictly below 200 nM?
a: f

* * *

# target: human recombinant HDAC1 (Homo sapiens, UniProt Q13547)
# Sequence (Q13547 whole entry): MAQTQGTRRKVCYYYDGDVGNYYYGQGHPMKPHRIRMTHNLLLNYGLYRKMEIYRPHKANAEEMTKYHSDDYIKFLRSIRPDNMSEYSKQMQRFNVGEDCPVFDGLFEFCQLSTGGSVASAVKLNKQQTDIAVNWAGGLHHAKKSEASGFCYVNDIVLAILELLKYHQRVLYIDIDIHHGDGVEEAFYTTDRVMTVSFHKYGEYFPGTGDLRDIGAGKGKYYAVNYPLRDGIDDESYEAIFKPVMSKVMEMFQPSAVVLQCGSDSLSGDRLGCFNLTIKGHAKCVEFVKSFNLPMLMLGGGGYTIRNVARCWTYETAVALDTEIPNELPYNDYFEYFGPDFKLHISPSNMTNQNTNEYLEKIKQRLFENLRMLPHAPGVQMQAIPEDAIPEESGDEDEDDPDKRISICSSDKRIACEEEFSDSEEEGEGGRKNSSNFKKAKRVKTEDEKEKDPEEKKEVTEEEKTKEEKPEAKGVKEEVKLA
# protocol.text: HDAC1 enzyme activity inhibition assay (in vitro, fluorimetric)
# measurement.parameters: human recombinant HDAC1, fluorimetric kit, 30° C. 60 minutes
# Protocol: In order to examine the HDAC6 selectivity of the compounds of formula 1 of the present invention by HDAC1 and HDAC6 enzymatic activity inhibition assays, an experiment was performed using a conventional substance as a control. HDAC enzyme activity was measured using a HDAC Fluorimetric Drug Discovery Kit (BML-AK511, 516, Enzo Life Science). […] Based on the resulting values, each IC50 value was calculated using GraphPad Prism4.0 program.
measured.metric: IC50

Consider the following illustrative entries.
- C[C@@H]1CN(Cc2ccc(C(=O)NO)cc2)C[C@H](C)N1Cc1cccc(CN2CC(F)(F)C2)c1: > 10 µM
- C[C@@H]1CN(Cc2ccc(C(=O)NO)cc2)C[C@H](C)N1Cc1ccc(CN2CCN(C)CC2)cc1: 20 µM
- C[C@@H]1CN(S(=O)(=O)c2cccnc2)C[C@H](C)N1Cc1ccc(C(=O)NO)cc1: 2.8 µM

Okay, next one:
q: Reported IC50 for human recombinant HDAC1 (Homo sapiens, UniProt Q13547), given C[C@@H]1CN(Cc2ccc(C(=O)NO)cc2)C[C@H](C)N1Cc1cccc(CN2CCN(C)CC2)c1 ?
a: 4.7 µM

* * *

# target: human recombinant HDAC6 (Homo sapiens)
# Construct: purchased Calbiochem 382180
# Sequence (Q9UBN7 1-1215): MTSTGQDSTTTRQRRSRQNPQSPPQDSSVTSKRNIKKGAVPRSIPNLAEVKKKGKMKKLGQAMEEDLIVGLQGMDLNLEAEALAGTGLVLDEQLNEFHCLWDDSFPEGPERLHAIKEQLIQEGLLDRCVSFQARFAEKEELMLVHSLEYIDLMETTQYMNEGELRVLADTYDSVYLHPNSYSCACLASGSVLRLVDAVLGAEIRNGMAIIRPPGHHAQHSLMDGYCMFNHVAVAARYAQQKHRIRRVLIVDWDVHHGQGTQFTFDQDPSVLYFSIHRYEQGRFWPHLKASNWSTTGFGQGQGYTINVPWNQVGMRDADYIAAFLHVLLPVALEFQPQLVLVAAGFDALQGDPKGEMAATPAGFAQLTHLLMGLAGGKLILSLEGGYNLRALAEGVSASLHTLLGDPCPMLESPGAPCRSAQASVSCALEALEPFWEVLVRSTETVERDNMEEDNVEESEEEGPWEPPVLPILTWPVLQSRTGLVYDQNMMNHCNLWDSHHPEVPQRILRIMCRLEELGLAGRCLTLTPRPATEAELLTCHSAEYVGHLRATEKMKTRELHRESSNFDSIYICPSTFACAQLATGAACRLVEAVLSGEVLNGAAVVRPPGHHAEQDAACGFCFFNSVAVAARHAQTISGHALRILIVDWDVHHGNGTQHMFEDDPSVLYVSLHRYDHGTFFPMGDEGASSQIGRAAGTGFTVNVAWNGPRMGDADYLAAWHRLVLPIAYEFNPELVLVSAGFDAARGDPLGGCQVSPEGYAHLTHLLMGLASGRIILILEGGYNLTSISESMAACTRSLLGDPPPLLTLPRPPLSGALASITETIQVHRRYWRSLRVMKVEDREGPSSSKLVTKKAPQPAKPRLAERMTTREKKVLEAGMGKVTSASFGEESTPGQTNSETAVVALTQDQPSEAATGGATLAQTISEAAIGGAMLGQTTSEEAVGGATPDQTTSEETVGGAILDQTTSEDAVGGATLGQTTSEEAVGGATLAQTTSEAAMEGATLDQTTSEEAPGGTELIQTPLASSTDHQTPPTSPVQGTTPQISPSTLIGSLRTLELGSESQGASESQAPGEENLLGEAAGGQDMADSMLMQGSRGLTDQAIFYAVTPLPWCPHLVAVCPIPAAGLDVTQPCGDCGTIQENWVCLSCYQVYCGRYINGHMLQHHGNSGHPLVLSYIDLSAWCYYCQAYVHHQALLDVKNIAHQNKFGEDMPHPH
# protocol.text: HDAC6 enzyme activity inhibition assay (in vitro, fluorimetric)
# Assay type: biochemical
# measurement.parameters: HDAC6 selectivity over HDAC1
measured.metric: HDAC6 selectivity (fold)

• C[C@@H]1CN(Cc2ccc(C(=O)NO)cc2)C[C@H](C)N1Cc1cccc(Cl)c1 [Compound 128] = 5540 fold
• C[C@@H]1CN(Cc2ccc(C(=O)NO)cc2)C[C@H](C)N1Cc1ccco1 [Compound 145] = 519 fold
• C[C@@H]1CN(Cc2ccc(/C=C/C(=O)NO)cc2)C[C@H](C)N1Cc1cccc(CN2CCOCC2)c1 [Compound 472] = 3 fold
• C[C@@H]1CN(Cc2cccc(-c3ccoc3)c2)C[C@H](C)N1Cc1ccc(C(=O)NO)cc1 [Compound 396] = 4 fold
• C[C@@H]1CN(Cc2ccc(C(=O)NO)cc2)C[C@H](C)N1C(=O)NCc1cccc(F)c1 [Compound 232] = 28 fold

q: Returns the measured HDAC6 selectivity (fold) for the input compound. Input: C[C@@H]1CN(C(=O)Nc2ccc3c(c2)CCO3)C[C@H](C)N1Cc1ccc(C(=O)NO)cc1 [Compound 187]
a: 5 fold

q: Returns the measured HDAC6 selectivity (fold) for the input compound. Input: C[C@@H]1CN(Cc2ccc(C(=O)NO)cc2)C[C@H](C)N1C(=O)Cc1cccc(Cl)c1 [Compound 224]
a: 14 fold

q: Returns the measured HDAC6 selectivity (fold) for the input compound. Input: C[C@@H]1CN(Cc2ccc(C(=O)NO)cc2)C[C@H](C)N1C(=O)c1ccncc1 [Compound 405]
a: 17 fold

* * *

# target: human recombinant HDAC1 (Homo sapiens, UniProt Q13547)
# Construct: purchased Enzo Life Science BML-SE456
# protocol.text: HDAC1 enzyme activity inhibition assay (in vitro, fluorimetric)
# Assay type: biochemical
# measurement.parameters: human recombinant HDAC1, fluorimetric kit, 30° C. 60 minutes
Readings of pIC50 for the listed compounds
pIC50 is defined as minus the log10 of a concentration measured in mol/L.

Consider the following illustrative entries.
- C[C@@H]1CN(Cc2ccc(C(=O)NO)cc2)C[C@H](C)N1Cc1cccc(-c2cccnc2)c1: 5.24
- C[C@@H]1CN(Cc2ccc(C(=O)NO)cc2)C[C@H](C)N1C(=O)c1cccc(Cl)c1: 4.93
- C[C@@H]1CN(C(=O)c2cccc(CN3CCCC3)c2)C[C@H](C)N1Cc1ccc(/C=C/C(=O)NO)cc1: 6.00

q: Returns the measured pIC50 for the input compound. Input: CCN1CC=C(c2ccccc2CN2[C@H](C)CN(Cc3ccc(C(=O)NO)cc3)C[C@@H]2C)CC1
a: 4.83
